- Measured On: Estrogen receptor beta (Homo sapiens, UniProt Q92731)
- Sequence (Q92731 whole entry): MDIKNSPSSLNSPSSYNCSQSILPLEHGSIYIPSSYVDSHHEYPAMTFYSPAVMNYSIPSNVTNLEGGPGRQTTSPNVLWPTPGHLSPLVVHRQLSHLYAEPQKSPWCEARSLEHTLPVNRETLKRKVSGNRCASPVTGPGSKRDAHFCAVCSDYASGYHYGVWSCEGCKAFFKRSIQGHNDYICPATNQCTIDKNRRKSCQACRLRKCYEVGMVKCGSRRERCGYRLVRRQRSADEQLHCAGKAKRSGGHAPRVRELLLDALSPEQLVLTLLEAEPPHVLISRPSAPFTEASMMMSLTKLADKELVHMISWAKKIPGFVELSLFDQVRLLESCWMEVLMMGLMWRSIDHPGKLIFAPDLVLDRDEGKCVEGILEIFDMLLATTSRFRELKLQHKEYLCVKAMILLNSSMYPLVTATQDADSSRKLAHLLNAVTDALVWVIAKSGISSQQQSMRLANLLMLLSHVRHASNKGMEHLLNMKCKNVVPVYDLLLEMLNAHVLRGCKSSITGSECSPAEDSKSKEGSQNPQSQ
- Assay Comment: Effective concentration against estrogen receptor beta of […]
Endpoint Name: EC50 (nM)

Example cases with answers are listed next.
CN(C)CCOc1ccc([C@H]2NC=N[C@H]2c2ccc(O)cc2Cl)c(Cl)c1: 3550
Oc1cc(Cl)c([C@@H]2N=CN[C@@H]2c2ccc(OCCN3CCCCC3)cc2Cl)c(Cl)c1: 400
Oc1ccc([C@@H]2N=CN[C@@H]2c2ccc(OCCN3CCCCC3)cc2Cl)c(Cl)c1: 600
Oc1ccc([C@@H]2N=CN[C@@H]2c2ccc(OCCN3CCCC3)cc2Cl)c(Cl)c1: 470

a = CCC1=N[C@H](c2ccc(OCCN3CCCCC3)cc2)[C@H](c2ccc(O)cc2)N1
b = CCC1=N[C@H](c2ccc(OCCN3CCCCC3)cc2Cl)[C@H](c2ccc(O)cc2Cl)N1
Higher EC50 between a and b ? Answer format: the label of the selected item.
b
(b: 2800 nM, a: 500 nM)
